ASSAY TARGET: CD47 on HL60 cells (UniProt Q08722 19-323, limits assumed)
METHOD: cell-based or functional assay
PROPERTY LABEL: rate of phagocytosis, antibody 1 µg/mL (%)
Write the number in % without appending the unit.

Query :: Entry hz3F10-2.1 (antibody, human IgG4 S228P, kappa, V domains shown, humanized 3F10, full-length heavy and light chains) VH: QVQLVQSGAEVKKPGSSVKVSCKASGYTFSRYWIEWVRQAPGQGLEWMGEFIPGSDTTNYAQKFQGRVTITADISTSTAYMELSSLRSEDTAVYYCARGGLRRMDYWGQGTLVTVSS VL: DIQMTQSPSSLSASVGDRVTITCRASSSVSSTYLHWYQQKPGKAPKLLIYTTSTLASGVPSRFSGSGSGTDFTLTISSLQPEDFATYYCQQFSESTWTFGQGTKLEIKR needs its rate of phagocytosis, antibody 1 µg/mL filled in; supply it.
Result :: 47.2

Query :: Entry hz3F10-5.1 (antibody, human IgG4 S228P, kappa, V domains shown, humanized 3F10, full-length heavy and light chains) VH: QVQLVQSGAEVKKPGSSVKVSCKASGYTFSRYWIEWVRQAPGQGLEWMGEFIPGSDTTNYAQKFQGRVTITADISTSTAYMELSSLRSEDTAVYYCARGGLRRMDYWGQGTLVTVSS VL: DIQMTQSPSSLSASVGDRVTITCRASSSVSSTYLHWYQQKPGKAPKLWIYTTSTLASGVPSRFSGSGSGTSYTLTISSLQPEDFATYYCQQFSDSTWTFGQGTKLEIKR needs its rate of phagocytosis, antibody 1 µg/mL filled in; supply it.
Result :: 50.5
